B1: Tyrosine-protein kinase Lck, residues 63 to 120; numbered along this chain, P06239 (parent)
chain: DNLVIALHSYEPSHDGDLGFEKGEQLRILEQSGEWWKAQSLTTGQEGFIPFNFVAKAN

variants of: B1; experiment: abundance fitness (aPCA) (normalised: wild type 0, dead -1); higher = more abundant; growth selection in yeast, the domain comes from the species named; settings: Homo sapiens
Label Criterion met when abundance fitness is at or above -0.4; anything below gets Criterion not met.

Reference set (8 entries):
mutant_name=E24V label="Criterion not met"
mutant_name=V4T label="Criterion met"
mutant_name=D15Q label="Criterion met"
mutant_name=D15W label="Criterion not met"
mutant_name=N2H label="Criterion met"
mutant_name=D1N label="Criterion met"
mutant_name=P50Y label="Criterion not met"
mutant_name=Q39M label="Criterion met"

# input Form field: abundance fitness at least -0.4? Entry: `K22G`
# output Criterion not met

# input Form field: abundance fitness at least -0.4? Entry: `F48L`
# output Criterion met

# input Form field: abundance fitness at least -0.4? Entry: `S40Q`
# output Criterion not met

# input Form field: abundance fitness at least -0.4? Entry: `V54Y`
# output Criterion not met

# input Form field: abundance fitness at least -0.4? Entry: `W35R`
# output Criterion met

# input Form field: abundance fitness at least -0.4? Entry: `Q39P`
# output Criterion not met

Sourced from the Human Domainome abundance scans (Beltran et al. 2025)
